These entries and their values trace back to PubChem BioAssay.

System: Fibrinogen (Alexa647-labelled)
Assay: fibrinogen binders on compound microarrays, profiling panel, artefact control for SMM control-protein annotation, biochemical, small-molecule microarray, 635/667 nm fluorescence (AID 1131);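 also: z-score merges 667 nm fluorescence with per-spot signal-to-noise over triplicate slides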
Details: fibrinogen-A647 binding fluorescence, higher = more signal

| COMPOUND | TARGET OR TEST SYSTEM | composite z-score |
| --- | --- | --- |
| CCOC(=O)C1=CCC(c2ccc(C)cc2)N(S(=O)(=O)c2ccc(C)cc2)C1 (stereo not drawn) | Fibrinogen (Alexa647-labelled) | 0.258 |
| O=C(O)[C@@]1(CCS(=O)(=O)c2ccccc2)COC(c2ccc(OCCCO)cc2)=N1 | Fibrinogen (Alexa647-labelled) | -1.2 |
| COC(=O)[C@@]1(Cc2ccc(OC)cc2)[C@H]2c3cc(C(=O)N(C)C)n(Cc4cccc5ccccc45)c3C[C@H]2CN1C(=O)c1ccccc1 | Fibrinogen (Alexa647-labelled) | 1.02 |
| COCCCNC(=O)[C@@]1(Cc2ccccc2)N=C(c2ccc(OCCCO)cc2)O[C@H]1c1ccccc1 | Fibrinogen (Alexa647-labelled) | 0.959 |
| O=C1OCCC/C=C\[C@H]2OC34C=CCN(Cn5nnc6ccccc65)C(=O)[C@H]3N(CCO)C(=O)[C@@H]4C12 (stereo partly drawn) | Fibrinogen (Alexa647-labelled) | -1.27 |
| CCCCC(=C=CC[C@@H](O)c1ccccc1OCCO)CCO | Fibrinogen (Alexa647-labelled) | -0.883 |
| NC(=O)[C@@H]1[C@H]2C(=O)O[C@H](c3ccccc3)[C@H](c3ccccc3)N2[C@H](c2ccc(O)cc2)[C@@]12C(=O)Nc1ccc(C#CC3(O)CCCCCC3)cc12 | Fibrinogen (Alexa647-labelled) | -0.819 |
| O=C(C1N=C(c2ccc(OCCCO)cc2)N(c2ccccc2)O1)N1CCOCC1 (stereo not drawn) | Fibrinogen (Alexa647-labelled) | 0.966 |

###

Assay: basal MM1S mitochondrial membrane potential changes, profiling panel, cell-based, JC-1 fluorescence, 24 h, 100 nL compound (AID 1170); also: test concentration not given here
Conditions: higher = more signal
just bin them by z-score: c1: < -0.6; c2: ≥ -0.6 and < -0.2; c3: ≥ -0.2

| COMPOUND | ANSWER LABEL |
| --- | --- |
| C[C@@H]1ON(c2cccc(C(=O)OC(C)(C)C)c2)[C@H](c2ccc(Br)cc2)[C@H]1C(=O)N1C(=O)OC[C@H]1Cc1ccccc1 | c3 |
| O=C1C2C=CC(C(O)C3CCCCC3)N(Nc3ccc([N+](=O)[O-])cc3)C2C(=O)N1c1ccccc1 (configuration not stated) | c3 |
| O=C1OCCC/C=C\[C@H]2OC34C=CCN(CCN5CCOCC5)C(=O)[C@H]3N(CCCO)C(=O)[C@@H]4C12 (some centres not stated) | c3 |
| COC(=O)[C@@]1(Cc2ccccc2)[C@H]2c3cc(C(=O)N4CCCC4)n(Cc4nc5ccccc5[nH]4)c3C[C@H]2CN1C(=O)c1ccccc1 | c1 |
| CC1CC/C=C\[C@H]2OC34C=CCN(C(C)(C)C)C(=O)[C@H]3N(CCCCCCO)C(=O)[C@@H]4C2C(=O)O1 (some centres not stated) | c3 |
| CC(C)(C)C(=O)N[C@@H](c1ccc(Cl)cc1)[C@]1(C)C[C@H]1C1CCCCC1 | c3 |
| COC(=O)[C@@]1(Cc2ccc(F)cc2)[C@H]2c3cc(C(=O)N4CCCC4)n(Cc4cc(C)n(C)n4)c3C[C@H]2CN1C(=O)c1ccccc1 | c2 |
| CC(C)C(CO)N1C(=O)[C@@H]2[C@H]3C(=O)OCC=C[C@H]3OC23C=CCN(C(C)C)C(=O)[C@@H]13 (some centres not stated) | c3 |
| COCCOC(=O)N1C(=O)[C@@]2(c3cc(C#Cc4ccc(OC)cc4)ccc31)[C@H](c1ccccc1OCCO)N1[C@H](c3ccccc3)[C@H](c3ccccc3)OC(=O)[C@H]1[C@@H]2C(=O)N1CCN(c2ncccn2)CC1 | c1 |
| CC(=O)n1cc(C(O)C2C=CC3C(=O)N(C)C(=O)C3N2Nc2ccccc2)c2ccccc21 (configuration not stated) | c3 |
| CCN(CC)c1ccc(N2CC=CC34O[C@@H]5/C=C\CCCOC(=O)C5[C@H]3C(=O)N(CCO)[C@@H]4C2=O)cc1 (some centres not stated) | c2 |
| COCCCNC(=O)[C@@]1(Cc2ccccc2N=[N+]=[N-])N=C(c2ccc(OCCCO)cc2)O[C@H]1c1ccccc1N=[N+]=[N-] | c1 |
| C=CCNC(=O)[C@@H]1[C@H]2C(=O)O[C@H](c3ccccc3)[C@H](c3ccccc3)N2[C@H](c2ccc(OCCO)cc2)[C@@]12C(=O)Nc1ccc(C#CCCO)cc12 | c3 |
| O=C1O[C@H](c2ccccc2)[C@H](c2ccccc2)N2[C@H]1[C@@H](C(=O)O)[C@]1(C(=O)Nc3ccc(C#CC4=CCCCC4)cc31)[C@H]2c1ccccc1OCCO | c1 |
| COC(=O)[C@@]1(Cc2ccccc2)[C@H]2c3cc(C(=O)N(C)C)n(CCSCCO)c3C[C@H]2CN1C(=O)c1ccccc1 | c2 |
| CCOC(=O)C[C@H]1[C@H](OC(=O)c2cc3ccccc3oc2=O)[C@@H](NC(=O)C2CCCCC2)c2cc(OCCCO)ccc2N1C(=O)c1ccccc1 | c3 |
| CN(C)CCCNC(=O)[C@@]1(c2ccc([N+](=O)[O-])cc2)CC(=O)N(C2CCCCC2)[C@@H]1c1ccc(CO)cc1I | c1 |
| CCCCCN1CC=CC23O[C@@H]4/C=C\CCCOC(=O)C4[C@H]2C(=O)N(C(CO)C(C)C)[C@@H]3C1=O (some centres not stated) | c2 |
| C=C(COC)/C(=C/C[C@@H](OC(C)=O)c1ccc(OCCO)cc1)c1cc(C(=O)OC)ccc1OC | c1 |
| COc1cc2c(cc1O)C(C1CC1)N(Cc1cc3c(cc1Br)OCO3)CC2 (configuration not stated) | c1 |
| COc1ccc([Si](C)(C)[C@H]2[C@H](CCn3cc([C@H](O)c4ccccc4)nn3)O[C@@]3(C(=O)N(Cc4cccc(N5CCOC5=O)c4)c4ccccc43)[C@@H]2C)cc1 | c1 |
| O=C1NCC(=O)N2[C@@H]1C[C@@H](C(=O)O)[C@H]2c1cccc(OCCO)c1 | c2 |
| CC1CC/C=C\[C@H]2OC34C=CCN(Cn5nnc6ccccc65)C(=O)[C@H]3N(C(CO)C(C)C)C(=O)[C@@H]4C2C(=O)O1 (some centres not stated) | c2 |
| C=CCOC(=O)[C@H]1[C@@H]2C(=O)O[C@@H](c3ccccc3)[C@@H](c3ccccc3)N2[C@@H](c2ccc(OCCOC(=O)[C@@H]3C[C@@H]4C(=O)N[C@@H](CCCC[N+](C)(C)C)C(=O)N4[C@@H]3c3ccc(O)cc3)cc2)[C@]12C(=O)Nc1ccccc12 | c2 |
| COC(=O)[C@@]1(Cc2ccc(F)cc2)[C@@H]2[C@@H](CC(=O)[C@H]2CC(=O)C(=O)N(C)C)CN1C(=O)c1ccccc1 | c1 |
| O=C(c1ccccc1)N1Cc2ccccc2[C@@H]2OC(c3ccc(OCCCO)cc3)=N[C@]2(Cc2ccccc2)C1=O | c3 |
| O=C1O[C@H](c2ccccc2)[C@H](c2ccccc2)N2[C@H]1[C@@H](C(=O)O)[C@]1(C(=O)Nc3ccc(C#CCCO)cc31)[C@H]2c1ccc(O)cc1 | c2 |

###

Target: Torsin-1A-interacting protein 2 (Homo sapiens)
Assay: LULL1 binders on small-molecule microarray, primary screen, cell lysate, human LULL1 lysate, 635/667 nm fluorescence (AID 1092);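 also: probe is lysate of COS7 cells overexpressing human LULL1; score merges per-feature 667 nm fluorescence with signal-to-noise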
Conditions: hLULL1 lysate binding, 635 nm fluorescence, higher = more signal
Decision: composite z-score compared against 3; not below it gives fulfilled, below it gives not fulfilled.

| COMPOUND | ANSWER LABEL |
| --- | --- |
| C=CCOC(=O)[C@@H]1[C@H]2C(=O)O[C@H](c3ccccc3)[C@H](c3ccccc3)N2[C@H](c2ccc(OCCOC(=O)[C@@H]3C[C@@H]4C(=O)N5CCC[C@H]5C(=O)N4[C@@H]3c3ccc(O)cc3)cc2)[C@@]12C(=O)Nc1ccc(I)cc12 | not fulfilled |
| COc1cc(CO)cc(I)c1O[C@H]1C=C(C(=O)NCCO)C[C@@H](N(CCN2CCOCC2)C(=O)C2CCOC2)[C@@H]1O (stereo partly drawn) | not fulfilled |
| O=C(C1N=C(c2ccc(OCCCO)cc2)N(c2ccccc2)O1)N1CCOCC1 (stereo not drawn) | not fulfilled |
| C=C(C)C1C(=C)CN([C@H](CO)c2ccccc2)C1=O (stereo partly drawn) | not fulfilled |
| C=CCOC(=O)[C@@H]1[C@H]2C(=O)O[C@H](c3ccccc3)[C@H](c3ccccc3)N2[C@H](c2ccc(OCCOC(=O)[C@@H]3C[C@@H]4C(=O)N[C@@H](Cc5ccccc5)C(=O)N4[C@@H]3c3ccc(O)cc3)cc2)[C@@]12C(=O)Nc1ccc(I)cc12 | not fulfilled |
| C=CC[C@]1(C(=O)NCCCOC)N=C(c2ccc(OCCCO)cc2)O[C@H]1c1ccccc1N=[N+]=[N-] | fulfilled |
| CN(C)CCCNC(=O)[C@@]1(C)c2ccccc2C(=O)N(Cc2cc(F)cc(C(F)(F)F)c2)[C@H]1c1ccc(CO)cc1 | fulfilled |
| CCOC(=O)C[C@H]1[C@H](OC(=O)c2ccc(C(=O)c3ccccc3)cc2)[C@@H](NC(=O)c2ccc(-c3ccccc3)cc2)c2cc(OCCCO)ccc2N1C(=O)c1ccccc1 | not fulfilled |
| C=CCOC(=O)[C@H]1[C@@H]2C(=O)O[C@@H](c3ccccc3)[C@@H](c3ccccc3)N2[C@@H](c2ccc(OCCOC(=O)[C@@H]3C[C@@H]4C(=O)N5CCC[C@H]5C(=O)N4[C@@H]3c3cccc(OCCO)c3)cc2)[C@]12C(=O)Nc1ccccc12 | not fulfilled |
| COC(=O)[C@@]1(Cc2ccc(OC)cc2)[C@H]2c3cc(C(=O)N4CCCC4)n(Cc4ccc(OC)c(OC)c4)c3C[C@H]2CN1C(=O)c1ccccc1 | fulfilled |
| O=C(c1ccccc1)N1Cc2ccccc2[C@@H]2OC(c3ccc(OCCCO)cc3)=N[C@]2(Cc2ccccc2)C1=O | fulfilled |
| COc1ccc([C@H]2OC[C@@H]3CC4(CC=CC4)C(=O)N32)cc1 | not fulfilled |
| O=C1[C@H]2C=C(Br)[C@H](C[C@@H]2OCCCCO)[C@@]12CO2 | not fulfilled |
